Source of measurements: ChEMBL document CHEMBL1275422

assayName: Cmax in human neonate serum after 25 hrs by fluorescence polarization immunoassay
Assay type: ADME, organism-based
quantityMeasured: Cmax (ng/mL)
Dear colleague, please return just the value in ng/mL, with no unit written.

Need Cmax of NCC[C@H](O)C(=O)N[C@@H]1C[C@H](N)[C@@H](O[C@H]2O[C@H](CN)[C@@H](O)[C@H](O)[C@H]2O)[C@H](O)[C@H]1O[C@H]1O[C@H](CO)[C@@H](O)[C@H](N)[C@H]1O [AMIKACIN] , thanks.
35700

###

assayName: Cmax in human neonate at 10 mg/kg, iv by HPLC
Assay type: ADME, organism-based
Set-up: dose 10 mg/kg, route intravenous
testSettings: in vivo
quantityMeasured: Cmax

Need Cmax of NCC[C@H](O)C(=O)N[C@@H]1C[C@H](N)[C@@H](O[C@H]2O[C@H](CN)[C@@H](O)[C@H](O)[C@H]2O)[C@H](O)[C@H]1O[C@H]1O[C@H](CO)[C@@H](O)[C@H](N)[C@H]1O , thanks.
< 200 ng/mL

###

assayName: Drug uptake in human adult CSF at 75 mg, im up to 8.5 hrs by HPLC
Type: ADME, organism-based, Cerebrospinal fluid
Set-up: dose 75 mg, route intramuscular
quantityMeasured: Cmax

Need Cmax of NCC[C@H](O)C(=O)N[C@@H]1C[C@H](N)[C@@H](O[C@H]2O[C@H](CN)[C@@H](O)[C@H](O)[C@H]2O)[C@H](O)[C@H]1O[C@H]1O[C@H](CO)[C@@H](O)[C@H](N)[C@H]1O , thanks.
< 500 ng/mL

###

assayName: Cmin in human neonate serum after 25 hrs by fluorescence polarization immunoassay
Format: ADME
testSettings: read-out: Cmin
quantityMeasured: concentration at 25 h (ng/mL)
Dear colleague, please return just the value in ng/mL, with no unit written.

Need concentration at 25 h of NCC[C@H](O)C(=O)N[C@@H]1C[C@H](N)[C@@H](O[C@H]2O[C@H](CN)[C@@H](O)[C@H](O)[C@H]2O)[C@H](O)[C@H]1O[C@H]1O[C@H](CO)[C@@H](O)[C@H](N)[C@H]1O , thanks.
3800

###

assayName: Drug uptake in human neonate CSF after 25 hrs by HPLC
Assay type: ADME, organism-based, Cerebrospinal fluid
quantityMeasured: Cmax (ng/mL)
Dear colleague, please return just the value in ng/mL, with no unit written.

Need Cmax of NCC[C@H](O)C(=O)N[C@@H]1C[C@H](N)[C@@H](O[C@H]2O[C@H](CN)[C@@H](O)[C@H](O)[C@H]2O)[C@H](O)[C@H]1O[C@H]1O[C@H](CO)[C@@H](O)[C@H](N)[C@H]1O , thanks.
1080
